# protocol.text: soluble on expression in E. coli; label from the status in PepcDB or PDB records
reported.metric: soluble on expression in E. coli

DRYCLTAPNYRLKSLQKKASTSAGRITVPRLSVGSVTSRPSTPTLGTPTPQTMSVSTKVGTPMSLTGQRFTVQMPTSQSPAVKASIPATSAVQNVLINPSLIGSKNILITTNMMSSQNTANESSNALKRKR :: soluble
MLEKELSFADLSISLSELYEAMGYADAVPDEAVEKEVRGVLGRVEAVTSPRFCFFISGGELDESKDSLSVGDTCFSIGKIITRQLRGSESFAFFAATAGTGFERFQHTLQQEGDMVKVYIADAIGSVIAEKTADCMEIALDEYIRDRGWRHTNRFSPGYCGWHVSEQKKLFPLFPSAEPCGIRLTDSGLMLPIKSVSGVIGLGDGVRKLEYTCGLCTYDRCYRRKQRGLEHHHHHH :: soluble

---

# protocol.text: soluble on expression in E. coli; label from the status in PepcDB or PDB records
reported.metric: soluble on expression in E. coli

APFTLLYDLLHPYGFNRDQIREVATSLDNPPGASFFSSSHRLLRERDRLTVLPLSPKMEVPELFGLKIGDSFLDLPDGKQLSWQRGTPADLDLEGLRLPNTKLLLPLAFVESLQEELGVRRPQRGDHIHPYGMKGCKTVSRFFIDRHVPRSRREEAWLLCQGTEVVWIMGYAADRRFAIDELSDTEEYLLFSFGL :: not soluble
MQIKDEILSLLKRGKNLLAFSYGSDSSVLFYLLMQEKIDFDLVMINYKTRKNSDLEELKAKELALKFHKKIFIKHAPKFQSNFEKKARDFRYDFFEKICLEQGYDHLILAHHLNDQFEWFLMQLSRGAGLAEILGMQECEKRSNYTLLRPLLFISKDEISSFLKEKDIFYFHDES :: not soluble
MADGINSTVTVERSDGPRHRGTAAGIGGLDLDLEDVTHKELIEARRTGDVGLVHSWELVTAVDGPGTRMTMFMSGCPLRCLYCHNPDTMGMKEGTVERVESIVKKIKRYRNVFKASGGGLTISGGEPLFQIAFTRRVLKEVHDAGIHTTIDTSGYLGARLTDEDLENIDLVLLDVKSGDEETYHRVSGGRELQPTIDFGNRLNAIGKPVWIRFVLVPGVSDAPENINNVADIVAQWKDNVERVEVLPFHNMGADKWHELGLNYELEDTKPPTQESVEFAKETFRSRGLTVY :: not soluble

---

# protocol.text: soluble on expression in E. coli; label from the status in PepcDB or PDB records
reported.metric: soluble on expression in E. coli

MSSANIPATQSALIFEKYGGPLEVRQVSVPQPQENELLVKIEYSGICHSDLHTWEGDFEYASICPLIGGHEGAGTVVTIGSKVKGWNIGDRAGIKLINANCLNCEYCKTGHEPLCDHIQNYGIDRHGTFQEYLTIRDIDAIKVSNDTNLAAAAPVLCGGVTAYKSLKATNVKPGQIVVLTGAGGGLGSFGIQYAKAMGMRVVAVDHISKEDHCRNLGAEWFVDAFDTPDIVAHIRKLTNGGAHGVVSFAAAKKPMEYALEYVRKRGTVVFVGLPKDGTIPLDTLSLICNEITVKGSIVGSRMDVDEAIDFITRGIVHVPIELVKLEDVPSVYQRMKDGKVTSRVVVDFSMR :: not soluble
MLVEFDNPPLCMKSNKDGSRLVVGFVDGSIRFYDTQQHEEEFQEIWKFQTKSSIRGVDLDEHKKRVYAVTKNRSLCVFDIDTGKRVRCILKCHRSVPTAICTLPPTALKSQQLATADESGEVKTWNLDPEVASENANIRKWQEQDEDINDLKVDVKSNLLATSSDGTLGAYDLRKAKLKMRSELMHSELYSVCGTNRSVYVGGEDGYVEVFNLNEYGNLLERVESGFEMGVNGIVELRSGLLGLTSQGSNRMRLLNVQPSKRLGYAGYHGDEKSDDDGIDAITISTDKSTVFTMISMSCTIKKWDMGPIIDEIPILRAQDAKSKKMRKTEGFFDGLVGPKNDSDSDDDDEPKSKKRRNDEDSDEEIDEEEQEEDDEEEEEDSD :: not soluble
MPMLSEEEGGAKIVLEGPKELLDRIVEALKEVYDPEIPVNVYDLGLIYEVRVEGPREKPRIKVKMSLTAIGCPVSVALPAYVEDAIREAVPEAEDVEVEVVFDPPWTPERVTPEGRELLKTIYGYDVVEQWKRAAQQQYGG :: soluble
MHEWGLSEELKIQTKQMIEIAEKELSIMRNAIDKEDECILCKMEDIHHMLANVQTLAATYYIQAYLSPYTESSSFITTAIQHLSARKHGALIVVERNETLEALIQTGTTLNAHLTAPLLESIFYPGNPLHDGAVLVKNNHIVSAANILPLTKSTEVDPELGTRHRAAIGLSEKSDALILVVSEETGRTSFALNGILYTISL :: soluble
MRLMKSYKNLKEEVWDTNRCSGCGACVAVCPVNNLYFREESPVKFECDECSCIIVPADIVEHPISAEFCKTVVYDVPCGACYDACPRIKKSAIPKPKGLGNILKAVRAKASIEIKNAQNGGVVTAILANAFDEGLIDGAIVMMDDKWTLEPESYLALSKEDVLKSAGSKYLWKGPILKALKTAVMEKKLKKLAVVGTPCVINAIYQILSSDNDLLKPFREAIRLKIALFCFETYDYSKMIKKLNEDGIEPWEVKKMDIESGKLKITLINGNTVEYKLKDVESAMRNGCKVCGDFTGLTSDISVGNVGTEKGYSTVLIRNKWGEGFFKRAVYNGYITYDENVDLEAVEKLVELKKKRVKKDLEHHHHHH :: soluble
MGSDKIHHHHHHMEFVFGKKVFQSEVRKASDLKPVLAFPEALKEDFDAYYMFRDSFKTDEEAEIIRNAGLRYDYTVIPPNNIGGESIKTYGHYHPEVVRGFTYPEVYQVLEGEALFILQKPSNGKIEDVIVVEGKKWDTVIIPPNYGHVTINPTESDLITANWVCRNFSSIYEPYTKRRGACYYYINGEWVRNRNYDDAPEIRFAKPKNVLDVKGDMYDLVYTIEKLEFLVKPHEHQEIFENAFEVV :: not soluble

---

# protocol.text: soluble on expression in E. coli; label from the status in PepcDB or PDB records
reported.metric: soluble on expression in E. coli

MSLFDFFKNKGSAATATDRLKLILAKERTLNLPYMEEMRKEIIAVIQKYTKSSDIHFKTLDSNQSVETIEVEIILPR :: not soluble
SMDPPPSETHKLVVVGGGGVGKSALTIQFIQSYFVSDYDPTIEDSYTKICSVDGIPARLDILDTAGQEEFGAMREQYMRAGHGFLLVFAINDRQSFNEVGKLFTQILRVKDRDDFPVVLVGNKADLESQRQVPRSEASAFGASHHVAYFEASAKLRLNVDEAFEQLVRAVRKYQEQELPPS :: soluble
MPKDKLVITVSGLAGSGTTTLSKKIAEHYGLKHVYAGLIFRQMAKEKGMSLEEFQKYAELHPEIDREVDRRQIEAAKEGNVVIEGRLAGWMVKNADLKIWLDAPIRVRAERVAKREGISVEEAFMKIAEREMQNRKRYLNLYGIDINDLSIYDLIINTSKWSPEGVFAIVKAAIDHLDPVGDAGSKKEKEVG :: soluble
MGSDKIHHHHHHMSASLNYKSFSKEQQTMDNLEKQLICPICLEMFTKPVVILPCQHNLCRKCASDIFQASNPYLPTRGGTTMASGGRFRCPSCRHEVVLDRHGVYGLQRNLLVENIIDIYKQESTRPEKKSDQPMCEEHEEERINIYCLNCEVPTCSLCKVFGAHKDCQVAPLTHVFQRQKSELSDGIAILVGSNDRVQGVISQLEDTCKTIEECCRKQKQELCEKFDYLYGILEERKNEMTQVITRTQEEKLEHVRALIKKYSDHLENVSKLVESGIQFMDEPEMAVFLQNAKTLLKKISEASKAFQMEKIEHGYENMNHFTVNLNREEKIIREIDFYR :: not soluble

---

# protocol.text: soluble on expression in E. coli; label from the status in PepcDB or PDB records
reported.metric: soluble on expression in E. coli

MGSDKIHHHHHHMTSALSEAGGYPPEGQGAYFLCDIFDAMPKNDLASMEHPLFSLSTRPDRRILNYEHNGAEITVTPSVKGLATIHDKDILIFCVSQLMAALNAGRQVSRVLHLTAHDLLVACNRETSGDAYRRLRESFERLAGTRITTNITTGGQEITTGFGLIESWEIVRKARGGRMVSVAVTLSDWLYRAVLSKSVLTLSRDYFRLRKPLERRIYELARKHCGRQDSWQISVETLLKKSGSASPRRVFRKMVRDMIESQPLPDYEMAELEGDIIRFSQKAAVVDVPPPVISEAARDEARRLMPGVDVHALEADWRATWARTGAPRLRKPDAAFVGWVRKRMND :: not soluble
MGCVSSKSTTVLSPQTSFNEASRTSFRALPGPSQRQLEVYDQCLIGAARWPDDSSKSNTPENRAYCQSMYNSIRSAGDEISRGGITSFEELWGRATEWRLSKLQRGEPLYSAFASERTSDTDAVTPLVKPYKSVLARVVDHEDAHDEIMQDNLFGDLNVKVYRQTAYLHGNVIPLNTFRVATDTEYLRDRVAHLRTELGAKALKQHLQRYNPDRIDHTNASYLPIIKDHLNDLYRQAISSDLSQAELISLIARTHWWAASAMPDQRGSAAKAEFAARAIASAHGIELPPFRNGNVSDIEAMLSGEEEFVEKYRSLLDSDCFGTGHHHHHH :: soluble
MKQVPPAAPVAPWLGGKKRLHPLILERIEAIPHRAYVEPFVGMGGIFLRRRFRPRLEVMNDRNGEIINLFRILQRHYPQLLEIMRFQICSRREFDRLRLTDPATLTDLERAARFLYLQRLSFGGKPNGSFGISPGNGPLFSLARLEPLLDAARTRLDGVVFECLDWADLIPRYDTAETLFYLDPPYFGGENDYGKGLFDRAQFARIAEILGSLKGAFLLSINDTPEIRALFGRFHLEPVRLNYSVSAAGSTEAQELLVSNRERIATLL :: not soluble
MERTFSEALKNRRTYYSITDQSPIPDQEIECIINLAVRHVPSAFNSQSTRVVLLLGKSHKKLWNIVKDALRKIVPGEAFAKTEEKIDNSFACGYGTVLFFEDQKVVKGLQEAFPSYQENFPGWSLQTSAMHQLAVWVMLEDVGFGASLQHYNPLIDDEVRRAWNLPAHWHLIAEMPFGVPVNKPGEKEFQPLEERIKVFK :: not soluble
MMRVKFNGKELDTDFKTSLEFFENISKNENDVWIINGFATKENIALNENDELFCIEKNTLPPKDALDAMMRARHTPKLHDKLKNGRVAVCGLGGLGSHIAINLARSGVGYLKLIDFDVIEPSNLNRQAYRVSDLGKFKTEALKEQISEINPYISVEICTLKIDEDNLESLFKDIDIVCEAFDSAIAKAMIAQNFHRFYKDGILICASGLAGYGDSNSIQTRKIAKNFYVCGDLVNGAKLGNGLMAPRVNICAGHQSNLVLELLANKELEHHHHHH :: soluble
